- Test system: Pseudomonas aeruginosa UC-12120
- testDescription: minimum inhibitory concentration (MIC) testing according to CLSI guidelines, Pseudomonas aeruginosa
- Assay type: cell-based
- setupConditions: Pseudomonas aeruginosa, UC12120; UC-12120, wild-type, labeled as 1091-05; overnight incubation; lower of duplicate values; read-out: AB-MBT: Pseudomonas aeruginosa 1091-05: MIC (MstRcn)
Exercise: for every item that follows, state its recorded MIC.
# number only, unit µg/mL dropped from output

Reported MIC for CC(C)(O/N=C(\C(=O)N[C@@H]1C(=O)N(S(=O)(=O)O)[C@@H]1CNC(=O)NCc1cc(=O)c(O)cn1O)c1nsc(N)n1)C(=O)O : what is it?
0.25

Ok, now Nc1nc(/C(=N/OC2(C(=O)O)CCC2)C(=O)N[C@@H]2C(=O)N(S(=O)(=O)O)[C@@H]2CNC(=O)C(=O)NCc2cc(=O)c(O)cn2O)cs1
0.06

Ok, now CC(C)(O/N=C(\C(=O)N[C@@H]1C(=O)N(S(=O)(=O)O)[C@@H]1CNC(=O)c1ccc(NC(=O)c2cc(=O)c(O)cn2O)cc1)c1csc(N)n1)C(=O)O
0.5
